- studyTarget: UniProtKB P21453
- assayText: S1P1 internalization assay in S1P1-U2OS cells (cell imaging)
- details: U2OS cells expressing S1P1-EGFP, 384-well format
- Sequence (P21453 whole entry): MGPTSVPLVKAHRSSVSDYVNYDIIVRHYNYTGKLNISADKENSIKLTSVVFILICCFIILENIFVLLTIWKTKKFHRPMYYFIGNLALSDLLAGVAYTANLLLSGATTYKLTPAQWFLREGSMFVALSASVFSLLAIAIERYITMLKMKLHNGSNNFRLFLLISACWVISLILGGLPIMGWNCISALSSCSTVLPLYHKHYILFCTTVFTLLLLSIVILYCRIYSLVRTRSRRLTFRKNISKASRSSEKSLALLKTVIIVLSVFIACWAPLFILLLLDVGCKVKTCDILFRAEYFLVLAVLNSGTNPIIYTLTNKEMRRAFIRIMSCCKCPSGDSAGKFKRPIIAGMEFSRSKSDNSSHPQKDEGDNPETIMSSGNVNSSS
pEC50: −log10 of the molar value. Where a name gives a salt, the structure may show the parent alone.
measuredMetric: pEC50

The following molecules have reported results that may help.
{"molecule": "CCN(Cc1cccc(-c2noc(-c3ccc(-c4ccccc4C)c(C(F)(F)F)c3)n2)c1)[C@H](CO)C(=O)O [Example 87]", "studyTarget": "UniProtKB P21453", "pEC50": 7.60}
{"molecule": "Cc1ccccc1-c1ccc(-c2nc(-c3ccc([C@@H](C)NCC(=O)O)cc3)no2)cc1C(F)(F)F [Example 22, hydrochloride salt]", "studyTarget": "UniProtKB P21453", "pEC50": 8.19}

(a) CCN(Cc1cccc(-c2noc(-c3ccc(-c4ccccc4C)c(C(F)(F)F)c3)n2)c1)C(C)(C)C(=O)O [Example 88]
(b) Cc1ccccc1-c1ccc(-c2nc(-c3ccc(CNC4(C(=O)O)CCC4)cc3)no2)cc1C(F)(F)F [Example 66]
Of a and b , which one carries the higher reported pEC50? Write down the label of the entry you select.
b
(b: 7.56, a: 7.16)

---

- assayText: Pharmacokinetics from lymphopenia study (mouse)
- Type: in vivo
- details: female, C57BL/6, plasma, 30 mg/kg, PK-PD (30 mpk), oral route
measuredMetric: Tmax (h)
# unit: h | format: bare number

Return reported Tmax; argument: Cc1ccccc1-c1ccc(-c2nc(-c3ccc(CN(C)C(C)(C)C(=O)O)c(F)c3)no2)cc1C(F)(F)F
2

---

- studyTarget: S1P3 (Homo sapiens, UniProt Q99500)
- Sequence (Q99500 whole entry, species assumed): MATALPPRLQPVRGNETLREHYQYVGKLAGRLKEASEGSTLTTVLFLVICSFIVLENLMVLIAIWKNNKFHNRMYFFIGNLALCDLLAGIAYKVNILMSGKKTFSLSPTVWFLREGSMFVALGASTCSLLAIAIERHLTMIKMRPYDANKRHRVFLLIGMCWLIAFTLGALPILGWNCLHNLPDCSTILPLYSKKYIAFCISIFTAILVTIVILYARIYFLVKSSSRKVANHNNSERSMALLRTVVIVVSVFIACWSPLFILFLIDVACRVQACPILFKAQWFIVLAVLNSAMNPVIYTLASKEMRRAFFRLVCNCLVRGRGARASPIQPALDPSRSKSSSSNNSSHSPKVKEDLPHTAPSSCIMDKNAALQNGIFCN
- assayText: Receptor binding assay, [33P]sphingosine 1-phosphate competition, membranes of CHO cells expressing S1P3
- details: 384 well plate; read-out: S1P3 Binding Ki [M] (384 well plate)
Where a name gives a salt, the structure may show the parent alone.
measuredMetric: Ki (M)

{"compound": "Cc1ccccc1-c1ccc(-c2nc(-c3ccc([C@H](C)N(C)CC(=O)O)cc3)no2)cc1C(F)(F)F [Example 34, hydrochloride salt]", "Ki / M": "6e-06"}

(1) Cc1cc(-c2nc(-c3ccc([C@@H](C)NCC(=O)O)cc3)no2)ccc1-c1ccccc1C(F)F [Example 7, hydrochloride salt]
(2) Cc1ccccc1-c1ccc(-c2nc(-c3cccc(CN(C)C(C(=O)O)C(C)C)c3)no2)cc1C(F)(F)F (stereo not drawn)
For this pair, 1 and 2 , which shows a numerically higher Ki? Your answer should be the label attached to the chosen record.
1

---

- studyTarget: S1P1 (Homo sapiens, UniProt P21453)
- assayText: Receptor binding assay, [33P]sphingosine 1-phosphate competition, membranes of CHO cells expressing S1P1
- details: 384 well plate; read-out: S1P1 Binding Ki [M] (384 well plate)
- Sequence (P21453 whole entry, species assumed): as the sequence (P21453 whole entry) above
Where a name gives a salt, the structure may show the parent alone.
measuredMetric: Ki (M)

Worked cases, answers included:
{"molecule": "Cc1ccccc1-c1ccc(-c2nc(-c3ccc([C@@H](C)N[C@@H](C)C(=O)O)cc3)no2)cc1C(F)(F)F [Example 19, hydrochloride salt]", "unitTag": "M", "Ki": "3.98e-09"}
{"molecule": "Cc1ccccc1-c1ccc(-c2nc(-c3ccc(CNC(C(=O)O)C(C)O)cc3)no2)cc1C(F)(F)F (stereo not shown) [Example 64]", "unitTag": "M", "Ki": "6.78e-09"}
{"molecule": "Cc1ccccc1-c1ccc(-c2nc(-c3ccc(CN(C)C(C(=O)O)C(C)O)cc3)no2)cc1C(F)(F)F (stereo not shown) [Example 74]", "unitTag": "M", "Ki": "8.53e-09"}
{"molecule": "COCC(c1ccc(-c2noc(-c3ccc(-c4ccccc4C)c(C(F)(F)F)c3)n2)cc1)N(C)CC(=O)O (stereo not shown) [Example 51]", "unitTag": "M", "Ki": "7.52e-09"}

(A) Cc1ccccc1-c1ccc(-c2nc(-c3ccc(CCN[C@@H](C)C(=O)O)cc3)no2)cc1C(F)(F)F [Example 92]
(B) Cc1ccccc1-c1ccc(-c2nc(-c3ccc(CNC4(C(=O)O)CCC4)cc3)no2)cc1C(F)(F)F [Example 66]
(C) Cc1ccccc1-c1ccc(-c2nc(-c3ccc(C(C)NCC(=O)O)cc3)no2)cc1C(F)(F)F (stereo not shown) [Example 32, hydrochloride salt]
Arrange items by their Ki values in increasing order. Put the labels in the order asked and list them.
C, B, A
(C: 1.69e-09 M, B: 3.86e-09 M, A: 6.94e-09 M)
